Test system: ORYZA SATIVA, L. TEBONNET
PROCEDURE SUMMARY: Rice tolerance to post-transplant applications under flooded paddy conditions, ORYSAT (Rice, Tebonnet)
Format: in vivo
CONDITION INFO: 0.500 kg/ha, post-transplant rice, 3-4 weeks after treatment
QUANTITY NAME: Herbicidal effect rating, ORYSAT
Give a plain numeric answer without units written out.

• COC(=O)Cn1c(=O)n(C)c(=O)n(-c2cc(Oc3ccc([N+](=O)[O-])cc3F)ccc2[N+](=O)[O-])c1=O [Compound 24] = 0.0
• COC(=O)Cn1c(=O)n(C)c(=O)n(-c2cc(Oc3ccc(Cl)cc3F)ccc2[N+](=O)[O-])c1=O [Compound 23] = 3.0
• COC(=O)Cn1c(=O)n(C)c(=O)n(-c2cc(Oc3ccc(C#N)cc3)ccc2[N+](=O)[O-])c1=O [Compound 32] = 0.0

Next, consider the following compound.
(Q) Value wanted: Herbicidal effect rating, ORYSAT (ORYZA SATIVA, L. TEBONNET) of entry Cn1c(=O)n(CC(=O)OC(C)(C)C)c(=O)n(-c2cc(Oc3c(F)cc(C(F)(F)F)cc3Cl)ccc2[N+](=O)[O-])c1=O [Compound 17]
(A) 2.0

* * *

System: ORYZA SATIVA, L. TEBONNET
PROCEDURE SUMMARY: Postemergence herbicidal evaluation, ORYSAT (Rice, Tebonnet)
Format: in vivo
Set-up: key: 0-9 visual rating scale vs untreated control
CONDITION INFO: 0.031 kg/ha
Measured Herbicidal effect rating, ORYSAT by item
Output spec: single numeric token, no unit.

The examples below pair each entry with its known result.
• COC(=O)Cn1c(=O)n(C)c(=O)n(-c2cc(Oc3c(F)cc(C(F)(F)F)cc3Cl)ccc2F)c1=O = 4.6
• Cn1c(=O)[nH]c(=O)n(-c2cc(Oc3c(F)cc(C(F)(F)F)cc3Cl)ccc2F)c1=O [C, reference compound] = 3.0
• COC(=O)Cn1c(=O)n(C)c(=O)n(-c2cc(Oc3ccc(C(F)(F)F)cc3Cl)ccc2[N+](=O)[O-])c1=O = 4.9

(Q) Recorded Herbicidal effect rating, ORYSAT for Cn1c(=O)[nH]c(=O)n(-c2cc(Oc3ccc(C(F)(F)F)cc3Cl)ccc2[N+](=O)[O-])c1=O [B, reference compound] , please?
(A) 4.0

* * *

Test system: ABUTILON THEOPHRASTI, MEDIC.
PROCEDURE SUMMARY: Postemergence herbicidal evaluation, ABUTH (Velvetleaf)
Assay type: in vivo
CONDITION INFO: 0.031 kg/ha
Recorded Herbicidal effect rating, ABUTH, one value per entry.
Respond with the number and no other words.

- Cn1c(=O)[nH]c(=O)n(-c2cc(Oc3ccc(C(F)(F)F)cc3Cl)ccc2[N+](=O)[O-])c1=O [B, reference compound]: 4.5
- COC(=O)Cn1c(=O)n(C)c(=O)n(-c2cc(Oc3c(F)cc(C(F)(F)F)cc3Cl)ccc2F)c1=O: 8.9
- Cn1c(=O)[nH]c(=O)n(-c2cc(Oc3c(F)cc(C(F)(F)F)cc3Cl)ccc2F)c1=O [C, reference compound]: 2.0

Below: the item to evaluate.
(Q) Look at this molecule and give its reported Herbicidal effect rating, ABUTH. COC(=O)Cn1c(=O)n(C)c(=O)n(-c2cc(Oc3ccc(C(F)(F)F)cc3Cl)ccc2[N+](=O)[O-])c1=O
(A) 7.3

* * *

Form field: ORYSAT herbicidal rating (rice tolerance) (one value per entry).
System: ORYZA SATIVA, L. TEBONNET
PROCEDURE SUMMARY: Rice tolerance to post-transplant applications under flooded paddy conditions, ORYSAT (Rice, Tebonnet);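 for ORYSAT herbicidal rating (rice tolerance): applied to flooded soil surface three days after transplanting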
Format: in vivo
CONDITION INFO: post-transplant rice, Rate 0.500 kg/ha, rated three to four weeks after treatment
Please state the value as a number alone, without comment.

* CCOC(=O)Cn1c(=O)n(C)c(=O)n(-c2cc(Oc3ccc(C(F)(F)F)cc3Cl)ccc2[N+](=O)[O-])c1=O [Compound 9] | 6.0

Next compound, please.
(Q) Dear colleague, I am looking for the recorded ORYSAT herbicidal rating (rice tolerance) of the following compound: COC(=O)Cn1c(=O)[nH]c(=O)n(-c2cc(Oc3ccc(C(F)(F)F)cc3Cl)ccc2[N+](=O)[O-])c1=O [Compound 8]
(A) 2.0

* * *

Tested on: ABUTILON THEOPHRASTI, MEDIC.
PROCEDURE SUMMARY: Postemergence herbicidal evaluation, ABUTH (Velvetleaf)
Format: in vivo
CONDITION INFO: Rate 0.063 kg/ha
Procedure: In the tests, seedling plants are grown in jiffy flats for about two weeks. The test compounds are dispersed in 50/50 acetone/water mixtures containing 0.5% TWEEN®20, a polyoxyethylene sorbitan monolaurate surfactant of Atlas Chemical Industries, […] to the plants through a spray nozzle operating at 40 psi for a predetermined time. After spraying, the plants are placed on greenhouse benches and are cared for in the usual manner, commensurate with conventional greenhouse practices. […]
QUANTITY NAME: ABUTH
Write the value as a bare number.

* Cn1c(=O)[nH]c(=O)n(-c2cccc(Oc3ccc(C(F)(F)F)cc3Cl)c2)c1=O [E, reference compound] | 4.0
* COC(=O)Cn1c(=O)n(C)c(=O)n(-c2cc(Oc3ccc(C(F)(F)F)cc3Cl)ccc2Cl)c1=O [Compound 39] | 9.0

(Q) What does the data say about its ABUTH? Entry: COC(=O)Cn1c(=O)n(C)c(=O)n(-c2cc(Oc3c(F)cc(C(F)(F)F)cc3Cl)ccc2[N+](=O)[O-])c1=O [Compound 16]
(A) 8.3

(Q) Then this molecule: Cn1c(=O)[nH]c(=O)n(-c2cc(Oc3c(F)cc(C(F)(F)F)cc3Cl)ccc2[N+](=O)[O-])c1=O [D, reference compound]
(A) 9.0

(Q) Quick one: Cn1c(=O)[nH]c(=O)n(-c2cc(Oc3ccc(C(F)(F)F)cc3Cl)ccc2Cl)c1=O [F, reference compound]
(A) 5.0

* * *

Tested on: ZEA MAYS L.
PROCEDURE SUMMARY: Postemergence herbicidal evaluation, ZEAMX (Corn, Field);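 note: higher means more injury with 8 approaching complete kill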
Assay type: in vivo
CONDITION INFO: Rate 0.063 kg/ha
Let's look at some compounds and their measured ZEAMX.
Write the number on its own, no unit after it.

Completed entries (count: 4):
• Cn1c(=O)[nH]c(=O)n(-c2cc(Oc3c(F)cc(C(F)(F)F)cc3Cl)ccc2[N+](=O)[O-])c1=O [D, reference compound] = 4.2
• Cn1c(=O)[nH]c(=O)n(-c2cccc(Oc3ccc(C(F)(F)F)cc3Cl)c2)c1=O [E, reference compound] = 1.5
• COC(=O)Cn1c(=O)n(C)c(=O)n(-c2cc(Oc3c(F)cc(C(F)(F)F)cc3Cl)ccc2[N+](=O)[O-])c1=O = 3.4
• COC(=O)Cn1c(=O)n(C)c(=O)n(-c2cc(Oc3ccc(C(F)(F)F)cc3Cl)ccc2Cl)c1=O = 4.8

Now for the compound whose ZEAMX we want.
(Q) Give the measured ZEAMX of Cn1c(=O)[nH]c(=O)n(-c2cc(Oc3ccc(C(F)(F)F)cc3Cl)ccc2Cl)c1=O [F, reference compound] .
(A) 2.5

* * *

Test system: ABUTILON THEOPHRASTI, MEDIC.
PROCEDURE SUMMARY: Postemergence herbicidal evaluation, ABUTH (Velvetleaf)
Assay type: in vivo
CONDITION INFO: Rate 0.125 kg/ha
QUANTITY NAME: ABUTH rating
// print number alone

For orientation, consider the following solved cases.
• COC(=O)Cn1c(=O)n(C)c(=O)n(-c2cc(Oc3cc(Cl)cc(Cl)c3Cl)ccc2[N+](=O)[O-])c1=O = 0.0
• COC(=O)Cn1c(=O)n(C)c(=O)n(-c2cc(Oc3ccc(C(F)(F)F)cc3Cl)ccc2Cl)c1=O = 9.0
• COC(=O)Cn1c(=O)n(C)c(=O)n(-c2cc(Oc3cc(Cl)cc(Cl)c3)ccc2[N+](=O)[O-])c1=O = 0.0
• COC(=O)Cn1c(=O)n(C)c(=O)n(-c2cc(Oc3ccc(C#N)cc3)ccc2[N+](=O)[O-])c1=O = 0.0

Shift focus to the following entry.
(Q) Suppose we examine the compound COC(=O)Cn1c(=O)n(C)c(=O)n(-c2cc(Oc3ncc(C(F)(F)F)cc3Cl)ccc2Br)c1=O ; what ABUTH rating value has been reported?
(A) 9.0

* * *

System: CYPERUS IRIA
PROCEDURE SUMMARY: Preemergence weed control under flooded paddy conditions, CYPIR (Rice Flatsedge)
Assay type: in vivo
CONDITION INFO: 0.500 kg/ha, preemergence, 3-4 weeks after treatment
QUANTITY NAME: Herbicidal effect rating, CYPIR
Would you mind answering with just the numeric figure?

Sample answers from the record:
* COC(=O)Cn1c(=O)n(C)c(=O)n(-c2cc(Oc3cc(F)c(F)cc3F)ccc2[N+](=O)[O-])c1=O | 0.0
* Cn1c(=O)n(CC(N)=O)c(=O)n(-c2cccc(Oc3ccc(C(F)(F)F)cc3Cl)c2)c1=O | 0.0
* COC(=O)Cn1c(=O)n(C)c(=O)n(-c2cc(Oc3cc(Cl)cc(Cl)c3Cl)ccc2[N+](=O)[O-])c1=O | 0.0
* COC(=O)Cn1c(=O)n(C)c(=O)n(-c2cc(Oc3c(Cl)cccc3Cl)ccc2[N+](=O)[O-])c1=O | 0.0
* COC(=O)Cn1c(=O)n(C)c(=O)n(-c2cc(Oc3ccccn3)ccc2[N+](=O)[O-])c1=O | 0.0
* C=CCn1c(=O)n(CC(=O)OCC)c(=O)n(-c2cc(Oc3ccc(C(F)(F)F)cc3Cl)ccc2[N+](=O)[O-])c1=O | 9.0
* COC(=O)Cn1c(=O)n(C)c(=O)n(-c2cc(Oc3cc(Cl)cc(Cl)c3)ccc2[N+](=O)[O-])c1=O | 0.0
* COC(=O)Cn1c(=O)n(C)c(=O)n(-c2cc(Oc3ccc(C#N)cc3)ccc2[N+](=O)[O-])c1=O | 0.0

Pending compound:
(Q) Returns the measured Herbicidal effect rating, CYPIR for the input compound. Input: COC(=O)Cn1c(=O)n(C)c(=O)n(-c2cc(Oc3ccc(C(F)(F)F)cc3Cl)ccc2Cl)c1=O
(A) 9.0
